# studySystem: GGPT I (Bos taurus, UniProt P29702+Q5EAD5)
# Construct: GGPT I is partially purified from bovine brain by ion-exchange chromatography
# protocolSummary: Evaluation of the inhibition of geranyl geranyl transferase protein I (3H-GGPP incorporation into RhoA-GST)
# testParameters: read-out: IC50 PGGTase
Define the label as met when IC50 is strictly less than 20 nM and as not met in all remaining cases.

N#Cc1ccc(Cn2cncc2CN(C(=O)C2CCCCC2)c2ccc3[nH]c(C(=O)N4CCCCC4)c(-c4ccccc4)c3c2)cc1 :: met
CC(C)C[C@H](NC(=O)c1cc2c(NCc3cncn3Cc3ccc(C#N)cc3)cccc2s1)C(=O)O :: met
CC(C)C[C@H](NC(=O)c1cc2cc(N(Cc3cncn3Cc3ccc(C#N)cc3)S(=O)(=O)c3ccccc3)ccc2s1)C(=O)O :: not met
N#Cc1ccc(Cn2cncc2CN(C(=O)c2ccccc2)c2ccc3[nH]c(C(=O)N4CCSCC4)c(-c4ccccc4)c3c2)cc1 :: not met

----------
pIC50 for assorted compounds
# studySystem: protein farnesyl transferase (Bos taurus, UniProt P29702+P49355)
# Construct: partially purified from bovine brain by ion-exchange chromatography
# protocolSummary: Evaluation of the inhibition of protein farnesyl transferase (dansyl-GCVLS fluorescence)
# testParameters: read-out: IC50 PFTase
pIC50: −log10 of the molar value.
outcomeMeasure: pIC50

COC(=O)[C@H](CCSC)NC(=O)c1cc2cc(N(Cc3cncn3Cc3ccc(C#N)cc3)S(=O)(=O)c3ccccc3)ccc2s1 [Example 40] :: 8.70
N#Cc1ccc(Cn2cncc2CN(C(=O)c2ccccc2)c2ccc3[nH]c(C(=O)N4CCSCC4)c(-c4ccccc4)c3c2)cc1 [Example 165] :: 8.00
CC(C)C[C@H](NC(=O)c1cc2cc(N(Cc3cncn3Cc3ccc(C#N)cc3)S(=O)(=O)c3ccccc3)ccc2s1)C(=O)O [Example 33] :: 8.22
CCCC(=O)N(Cc1cncn1Cc1ccc(C#N)cc1)c1ccc2sc(C(=O)N3CCSCC3)cc2c1 [Example 92] :: 8.70
N#Cc1ccc(Cn2cncc2CN(C(=O)c2cccc(F)c2)c2ccc3sc(C(=O)N4CCSCC4)cc3c2)cc1 [Example 97] :: 9.00
CCCCN(Cc1cncn1Cc1ccc(C#N)cc1)c1ccc2sc(C(=O)N3CCSCC3)cc2c1 [Example 113] :: 8.10
CCOC(=O)c1cc2cc(NCc3cncn3Cc3ccc(C#N)cc3)ccc2s1 [Example 34] :: 8.00
